Measured values drawn from patent US20230406883A1 for this set.

Assay System: hNK3R (Homo sapiens)
Sequence (P29371 whole entry): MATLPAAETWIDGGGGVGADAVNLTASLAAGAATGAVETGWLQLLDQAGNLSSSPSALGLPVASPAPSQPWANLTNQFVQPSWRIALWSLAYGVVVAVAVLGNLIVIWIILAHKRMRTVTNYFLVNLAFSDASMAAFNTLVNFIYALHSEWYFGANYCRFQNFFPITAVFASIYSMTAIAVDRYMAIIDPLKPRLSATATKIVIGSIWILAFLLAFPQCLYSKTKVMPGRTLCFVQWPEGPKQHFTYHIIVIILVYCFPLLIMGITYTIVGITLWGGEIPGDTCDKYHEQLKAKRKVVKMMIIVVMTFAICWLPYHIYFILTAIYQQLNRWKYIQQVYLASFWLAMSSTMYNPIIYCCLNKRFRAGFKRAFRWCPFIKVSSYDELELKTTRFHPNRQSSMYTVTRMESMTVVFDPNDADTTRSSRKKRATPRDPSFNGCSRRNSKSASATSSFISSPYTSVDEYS
Assay Summary: IP3 assay (inositol trisphosphate, 3H-myoinositol) in transiently transfected COS-7 cells
Experimental Context: COS-7 cells, 0.2% ovalbumin buffer; read-out: hNK3, IP3 EC50
Numbered stars: 1 amine (or outer) side, 2 acyl side, 3 side chain; on linkers, the order of the positions; unused ones are H or OH. Square brackets hold non-standard residues; d marks the D form. Peptide text beside a SMILES is read from it. * marks the point of attachment. C20 diacid = O=C(O)CCCCCCCCCCCCCCCCCCC(=O)*; C18 diacid = O=C(O)CCCCCCCCCCCCCCCCC(=O)*; Phe(4-F) = N[C@@H](Cc1ccc(F)cc1)C(=O)O; γGlu = O=C(O)[C@H](CCC(=O)[*:2])N[*:1]; NMeL = CN[C@@H](CC(C)C)C(=O)O; Nle = CCCC[C@H](N)C(=O)O; AEEA = NCCOCCOCC(=O)O
Quantity Name: EC50

Value wanted: EC50 (hNK3R (Homo sapiens)) of entry CCCC[C@H](NC(=O)[C@H](CC(C)C)N(C)C(=O)CNC(=O)[C@@H](NC(=O)[C@H](Cc1ccccc1)NC(=O)[C@H](CCCCN)NC(=O)[C@@H](N)CC(=O)O)C(C)C)C(N)=O [compound 375, Asp;Lys;Phe;Val;Gly;NmLeu;Nle;NH2]
~50000 nM

Please give the result for CC(C)C[C@@H](C(=O)N[C@@H](Cc1ccc(F)cc1)C(N)=O)N(C)C(=O)CNC(=O)[C@@H](NC(=O)[C@H](Cc1ccc(O)cc1)NC(=O)[C@H](CCCCN)NC(=O)[C@H](CC(=O)O)NC(=O)COCCOCCNC(=O)COCCOCCNC(=O)CC[C@H](NC(=O)CCCCCCCCCCCCCCCCC(=O)O)C(=O)O)C(C)C [compound 369, *Asp;Lys;Tyr;Val;Gly;NmLeu;4-F-Phe;NH2] ({C18 diacid-γGlu-AEEA-AEEA}-DKYVG[NMeL][Phe(4-F)]-NH2) too.
~190 nM

Please answer likewise for CCCC[C@H](NC(=O)[C@H](CC(C)C)N(C)C(=O)CNC(=O)[C@@H](NC(=O)[C@H](Cc1ccc(O)cc1)NC(=O)[C@H](CCCCN)NC(=O)[C@H](CCC(=O)O)NC(=O)COCCOCCNC(=O)COCCOCCNC(=O)CC[C@H](NC(=O)CCCCCCCCCCCCCCCCC(=O)O)C(=O)O)C(C)C)C(N)=O [compound 336, *Glu;Lys;Tyr;Val;Gly;NmLeu;Nle;NH2] ({C18 diacid-γGlu-AEEA-AEEA}-EKYVG[NMeL][Nle]-NH2)
~3800 nM

Please answer likewise for CCCC[C@H](NC(=O)[C@H](CC(C)C)N(C)C(=O)CNC(=O)[C@@H](NC(=O)[C@H](Cc1ccc(O)cc1)NC(=O)[C@H](CCCCN)NC(=O)[C@H](CC(=O)O)NC(=O)COCCOCCNC(=O)COCCOCCNC(=O)CC[C@H](NC(=O)CCCCCCCCCCCCCCCCCCC(=O)O)C(=O)O)C(C)C)C(N)=O [compound 380, *Asp;Lys;Tyr;Val;Gly;NmLeu;Nle;NH2] ({C20 diacid-γGlu-AEEA-AEEA}-DKYVG[NMeL][Nle]-NH2)
~160 nM

---

Assay System: hNK2R (Homo sapiens)
Construct: host or cells: COS-7
Sequence (P21452 whole entry): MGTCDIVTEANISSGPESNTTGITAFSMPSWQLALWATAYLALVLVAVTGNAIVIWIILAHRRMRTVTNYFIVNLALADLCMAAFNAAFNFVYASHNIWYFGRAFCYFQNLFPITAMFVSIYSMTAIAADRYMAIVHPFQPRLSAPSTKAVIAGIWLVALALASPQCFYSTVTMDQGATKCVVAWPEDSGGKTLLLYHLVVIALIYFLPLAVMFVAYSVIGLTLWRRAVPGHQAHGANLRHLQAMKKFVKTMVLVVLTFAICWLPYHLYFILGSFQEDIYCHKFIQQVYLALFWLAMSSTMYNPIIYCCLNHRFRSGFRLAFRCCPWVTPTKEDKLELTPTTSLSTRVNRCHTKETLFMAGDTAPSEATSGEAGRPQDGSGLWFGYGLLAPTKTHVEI
Assay Summary: IP3 assay (inositol trisphosphate, 3H-myoinositol) in transiently transfected COS-7 cells
Format: cell-based
Experimental Context: COS-7 cells; figure legends: percent of 10^-6 M NKA
Numbered stars: 1 amine (or outer) side, 2 acyl side, 3 side chain; on linkers, the order of the positions; unused ones are H or OH. Square brackets hold non-standard residues; d marks the D form. Peptide text beside a SMILES is read from it. * marks the point of attachment. C20 diacid = O=C(O)CCCCCCCCCCCCCCCCCCC(=O)*; C18 diacid = O=C(O)CCCCCCCCCCCCCCCCC(=O)*; γGlu = O=C(O)[C@H](CCC(=O)[*:2])N[*:1]; NMeL = CN[C@@H](CC(C)C)C(=O)O; hSer = N[C@@H](CCO)C(=O)O; Nle = CCCC[C@H](N)C(=O)O; AEEA = NCCOCCOCC(=O)O; Aib = CC(C)(N)C(=O)O
Quantity Name: hNK2R, IP3 Efficacy (%)
State just the number; it will be interpreted in %.

hNK2R, IP3 Efficacy for CCCC[C@H](NC(=O)[C@H](CC(C)C)N(C)C(=O)CNC(=O)[C@@H](NC(=O)[C@H](Cc1ccc(O)cc1)NC(=O)[C@H](CCCCN)NC(=O)[C@H](CC(=O)O)NC(=O)COCCOCCNC(=O)COCCOCCNC(=O)CC[C@H](NC(=O)CCCCCCCCCCCCCCCCCCC(=O)O)C(=O)O)C(C)C)C(N)=O [compound 380, *Asp;Lys;Tyr;Val;Gly;NmLeu;Nle;NH2] ({C20 diacid-γGlu-AEEA-AEEA}-DKYVG[NMeL][Nle]-NH2) ?
90

Same question, CCCC[C@H](NC(=O)[C@H](CC(C)C)NC(=O)CNC(=O)[C@@H](NC(=O)[C@H](Cc1ccccc1)NC(=O)[C@H](CO)NC(=O)[C@H](CC(=O)O)NC(=O)[C@@H](NC(=O)[C@H](CCCCN)NC(=O)COCCOCCNC(=O)COCCOCCNC(=O)CC[C@H](NC(=O)CCCCCCCCCCCCCCCCC(=O)O)C(=O)O)[C@@H](C)O)C(C)C)C(N)=O this time
65

Another molecule: CCCC[C@H](NC(=O)[C@H](CC(C)C)N(C)C(=O)CNC(=O)[C@@H](NC(=O)[C@H](Cc1ccc(O)cc1)NC(=O)[C@H](CCCNC(=N)N)NC(=O)[C@H](CCC(=O)O)NC(=O)COCCOCCNC(=O)COCCOCCNC(=O)CC[C@H](NC(=O)CCCCCCCCCCCCCCCCC(=O)O)C(=O)O)C(C)C)C(N)=O [compound 357, *Glu;Arg;Tyr;Val;Gly;NmLeu;Nle;NH2] ({C18 diacid-γGlu-AEEA-AEEA}-ERYVG[NMeL][Nle]-NH2)
90

Now consider CCCC[C@H](NC(=O)[C@H](CC(C)C)N(C)C(=O)CNC(=O)[C@@H](NC(=O)[C@H](Cc1ccccc1)NC(=O)[C@H](CCCCN)NC(=O)[C@H](CCC(=O)O)NC(=O)COCCOCCNC(=O)COCCOCCNC(=O)CC[C@H](NC(=O)CCCCCCCCCCCCCCCCC(=O)O)C(=O)O)[C@@H](C)O)C(N)=O [compound 397, *Glu;Lys;Phe;Thr;Gly;NmLeu;Nle;NH2] ({C18 diacid-γGlu-AEEA-AEEA}-EKFTG[NMeL][Nle]-NH2) .
75

// query: COCC[C@H](NC(=O)[C@H](CC(C)C)NC(=O)C(C)(C)NC(=O)[C@@H](NC(=O)[C@H](Cc1ccc(O)cc1)NC(=O)[C@H](CCCCN)NC(=O)[C@H](CC(=O)O)NC(=O)COCCOCCNC(=O)COCCOCCNC(=O)CC[C@H](NC(=O)CCCCCCCCCCCCCCCCC(=O)O)C(=O)O)C(C)C)C(N)=O [compound 394, *Asp;Lys;Tyr;Val;Aib;Leu;Metox;NH2] ({C18 diacid-γGlu-AEEA-AEEA}-DKYV[Aib]L[hSer](Me)-NH2)
90

---

Assay System: hNK1R (Homo sapiens, UniProt P25103)
Sequence (P25103 whole entry): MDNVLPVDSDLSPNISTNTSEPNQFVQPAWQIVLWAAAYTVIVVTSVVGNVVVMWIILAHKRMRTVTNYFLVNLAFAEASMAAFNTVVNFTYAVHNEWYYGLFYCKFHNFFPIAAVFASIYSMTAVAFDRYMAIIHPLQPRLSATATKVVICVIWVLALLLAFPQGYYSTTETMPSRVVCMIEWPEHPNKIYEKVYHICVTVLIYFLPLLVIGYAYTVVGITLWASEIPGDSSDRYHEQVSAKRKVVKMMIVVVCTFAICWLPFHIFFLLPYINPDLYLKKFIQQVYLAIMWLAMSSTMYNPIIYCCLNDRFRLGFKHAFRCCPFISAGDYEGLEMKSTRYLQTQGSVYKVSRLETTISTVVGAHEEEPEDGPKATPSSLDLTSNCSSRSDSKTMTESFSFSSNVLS
Assay Summary: IP3 assay (inositol trisphosphate, 3H-myoinositol) in transiently transfected COS-7 cells
Experimental Context: COS-7 cells, 0.2% ovalbumin buffer
pEC50: −log10 of the molar value. Numbered stars: 1 amine (or outer) side, 2 acyl side, 3 side chain; on linkers, the order of the positions; unused ones are H or OH. Square brackets hold non-standard residues; d marks the D form. Peptide text beside a SMILES is read from it. * marks the point of attachment. C18 diacid = O=C(O)CCCCCCCCCCCCCCCCC(=O)*; γGlu = O=C(O)[C@H](CCC(=O)[*:2])N[*:1]; NMeL = CN[C@@H](CC(C)C)C(=O)O; hSer = N[C@@H](CCO)C(=O)O; AEEA = NCCOCCOCC(=O)O
Kindly supply the reported pEC50 values for the records listed here.

Any idea what pEC50 was measured for COCC[C@H](NC(=O)[C@H](CC(C)C)N(C)C(=O)CNC(=O)[C@@H](NC(=O)[C@H](Cc1ccc(O)cc1)NC(=O)[C@H](CCCCN)NC(=O)[C@H](CC(=O)O)NC(=O)COCCOCCNC(=O)COCCOCCNC(=O)CC[C@H](NC(=O)CCCCCCCCCCCCCCCCC(=O)O)C(=O)O)C(C)C)C(N)=O [compound 344, *Asp;Lys;Tyr;Val;Gly;NmLeu;Metox;NH2] ({C18 diacid-γGlu-AEEA-AEEA}-DKYVG[NMeL][hSer](Me)-NH2) ?
~6.80

Same read-out for CCCC[C@H](NC(=O)[C@H](CC(C)C)N(C)C(=O)CNC(=O)[C@@H](NC(=O)[C@H](Cc1ccccc1)NC(=O)[C@H](CO)NC(=O)[C@H](CC(=O)O)NC(=O)[C@@H](NC(=O)[C@H](CCCCN)NC(=O)COCCOCCNC(=O)COCCOCCNC(=O)CC[C@H](NC(=O)CCCCCCCCCCCCCCCCC(=O)O)C(=O)O)[C@@H](C)O)C(C)C)C(N)=O ?
~6.75

Next up: CCCC[C@H](NC(=O)[C@H](CC(C)C)NC(=O)CNC(=O)[C@@H](NC(=O)[C@H](Cc1ccccc1)NC(=O)[C@H](CO)NC(=O)[C@H](CC(=O)O)NC(=O)[C@@H](NC(=O)[C@H](CCCCN)NC(=O)COCCOCCNC(=O)COCCOCCNC(=O)CC[C@H](NC(=O)CCCCCCCCCCCCCCCCC(=O)O)C(=O)O)[C@@H](C)O)C(C)C)C(N)=O
~6.79
